B1: glmS ribozyme (parent)
chain: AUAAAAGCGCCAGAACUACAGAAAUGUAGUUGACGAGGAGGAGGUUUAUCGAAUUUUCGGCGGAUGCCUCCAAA

Variants of: B1
experiment: self-cleavage kobs at 2500 uM GlcN6P; higher = faster cleavage; RNA array
measurement conditions: with glucosamine-6-phosphate
Fewer inactive variants are shown than the library holds.
Binary call on self-cleavage kobs at 2500 uM GlcN6P: met from 0.0007 s⁻¹ upward, not met beneath that.

Previously resolved entries follow.
>>> label_value("G13A G40C G60A U65A")
"not met"
>>> label_value("C11U G29C U31A")
"not met"
>>> label_value("G37A G43U G62U G66C C67A")
"not met"
>>> label_value("C11A A52G C70U")
"not met"
>>> label_value("C34G U45A")
"not met"

Then this variant:
Please tell me: is the variant U31C G32C G37U G41C U46A A53U U55A A64C at or over 0.0007 s⁻¹ in terms of self-cleavage kobs at 2500 uM GlcN6P? not met

The values you see were collected from the supplement of paper PMC7125110.
